Each recorded value in this set is attributed to BindingDB's records for doi:10.1016/j.ejmech.2009.09.025.

targetOfAssay: Glutamate receptor ionotropic, kainate 2 (GluK2/GRIK2) (Homo sapiens) (UniProt Q13002)
Sequence (Q13002 whole entry, looked up): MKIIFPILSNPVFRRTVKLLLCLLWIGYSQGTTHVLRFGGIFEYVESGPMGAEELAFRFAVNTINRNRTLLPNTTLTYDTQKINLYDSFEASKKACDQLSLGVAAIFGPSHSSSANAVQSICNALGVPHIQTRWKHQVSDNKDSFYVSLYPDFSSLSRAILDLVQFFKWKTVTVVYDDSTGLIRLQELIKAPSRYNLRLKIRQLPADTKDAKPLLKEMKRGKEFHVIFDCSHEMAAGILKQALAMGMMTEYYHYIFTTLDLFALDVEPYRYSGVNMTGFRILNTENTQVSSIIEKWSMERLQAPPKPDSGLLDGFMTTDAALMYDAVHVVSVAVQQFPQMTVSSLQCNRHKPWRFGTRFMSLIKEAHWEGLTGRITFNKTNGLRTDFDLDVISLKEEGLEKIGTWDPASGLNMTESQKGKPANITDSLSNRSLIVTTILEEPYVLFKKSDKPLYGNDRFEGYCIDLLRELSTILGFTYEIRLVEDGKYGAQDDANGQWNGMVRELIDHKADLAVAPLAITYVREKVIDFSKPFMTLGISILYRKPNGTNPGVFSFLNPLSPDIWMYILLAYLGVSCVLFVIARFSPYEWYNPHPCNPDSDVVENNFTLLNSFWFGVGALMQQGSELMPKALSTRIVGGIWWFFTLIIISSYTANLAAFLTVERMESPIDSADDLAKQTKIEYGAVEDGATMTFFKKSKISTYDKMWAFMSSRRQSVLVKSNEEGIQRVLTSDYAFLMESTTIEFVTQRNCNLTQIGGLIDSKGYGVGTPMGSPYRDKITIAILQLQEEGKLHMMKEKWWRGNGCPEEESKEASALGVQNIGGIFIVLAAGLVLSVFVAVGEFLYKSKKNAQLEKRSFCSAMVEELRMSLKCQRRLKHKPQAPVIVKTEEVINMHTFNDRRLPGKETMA
testProtocol: Antagonist activity at human recombinant GluR6 expressed in HEK cells coexpressing aequorine assessed as inhibition of glutamate-induced Ca2+ influx at 10 uM by luminescence reporter assay
endpointLabel: IC50 (µM)

[[record]]
chemicalsmiles = "CCOC(=O)c1c(N=NN2CCOCC2)sc(-c2ccccc2)c1C"
targetofassay = "Glutamate receptor ionotropic, kainate 2 (GluK2/GRIK2) (Homo sapiens) (UniProt Q13002)"
endpointlabel = "IC50"
valuemeasured = 54

[[record]]
chemicalsmiles = "CCOC(=O)c1c(N=NC#N)sc(-c2ccccc2)c1C"
targetofassay = "Glutamate receptor ionotropic, kainate 2 (GluK2/GRIK2) (Homo sapiens) (UniProt Q13002)"
endpointlabel = "IC50"
valuemeasured = 21

[[record]]
chemicalsmiles = "CCOC(=O)c1c(N)sc(-c2ccccc2)c1-c1ccccc1"
targetofassay = "Glutamate receptor ionotropic, kainate 2 (GluK2/GRIK2) (Homo sapiens) (UniProt Q13002)"
endpointlabel = "IC50"
valuemeasured = 4.5

[[record]]
chemicalsmiles = "CCOC(=O)c1c(N)sc(-c2ccccc2Cl)c1C"
targetofassay = "Glutamate receptor ionotropic, kainate 2 (GluK2/GRIK2) (Homo sapiens) (UniProt Q13002)"
endpointlabel = "IC50"
valuemeasured = 5.7

[[record]]
chemicalsmiles = "CCOC(=O)c1c(N)sc(-c2ccccc2)c1C"
targetofassay = "Glutamate receptor ionotropic, kainate 2 (GluK2/GRIK2) (Homo sapiens) (UniProt Q13002)"
endpointlabel = "IC50"
valuemeasured = 0.75

[[record]]
chemicalsmiles = "CCOC(=O)c1c(N=C=S)sc(-c2ccccc2)c1C"
targetofassay = "Glutamate receptor ionotropic, kainate 2 (GluK2/GRIK2) (Homo sapiens) (UniProt Q13002)"
endpointlabel = "IC50"
valuemeasured = 3.5

[[record]]
chemicalsmiles = "CCOC(=O)c1c(N)sc(-c2ccc(F)cc2)c1C"
targetofassay = "Glutamate receptor ionotropic, kainate 2 (GluK2/GRIK2) (Homo sapiens) (UniProt Q13002)"
endpointlabel = "IC50"
valuemeasured = 12

[[record]]
chemicalsmiles = "Cc1c(-c2ccccc2)sc(N)c1C(=O)c1ccccc1"
targetofassay = "Glutamate receptor ionotropic, kainate 2 (GluK2/GRIK2) (Homo sapiens) (UniProt Q13002)"
endpointlabel = "IC50"
valuemeasured = 10.6


(A) C[C@H](C[C@H](N)C(=O)O)C(=O)O
(B) Clc1ccc(CO[C@@H](Cn2ccnc2)c2ccc(Cl)cc2Cl)c(Cl)c1
Asked: Could you tell me which of A and B has the lower IC50 reading? The response must carry the label of the picked entry.
Given back: A

* * *

targetOfAssay: Glutamate receptor ionotropic, kainate 2 (GluK2/GRIK2) (Homo sapiens) (UniProt Q13002)
testProtocol: Antagonist activity at human recombinant GluR6 expressed in HEK cells coexpressing aequorine assessed as inhibition of glutamate-induced Ca2+ influx at 10 uM by luminescence reporter assay
pIC50: −log10 of the molar value.
endpointLabel: pIC50

Below are worked cases with known answers.
[[record]]
chemicalsmiles = "CCOC(=O)c1c(N=NN(C)C)sc(-c2ccccc2)c1C"
targetofassay = "Glutamate receptor ionotropic, kainate 2 (GluK2/GRIK2) (Homo sapiens) (UniProt Q13002)"
endpointlabel = "pIC50"
valuemeasured = 4.42

[[record]]
chemicalsmiles = "N#Cc1cc2c(cc1[N+](=O)[O-])=NC(=O)C(=O)N=2"
targetofassay = "Glutamate receptor ionotropic, kainate 2 (GluK2/GRIK2) (Homo sapiens) (UniProt Q13002)"
endpointlabel = "pIC50"
valuemeasured = 4.64

[[record]]
chemicalsmiles = "CCOC(=O)c1c(Cl)sc(-c2ccccc2)c1C"
targetofassay = "Glutamate receptor ionotropic, kainate 2 (GluK2/GRIK2) (Homo sapiens) (UniProt Q13002)"
endpointlabel = "pIC50"
valuemeasured = 5.00


(a) CCOC(=O)c1c(N)sc(-c2ccc(OC)cc2)c1C
(b) COC(=O)c1c(N)sc(-c2ccccc2)c1C
(c) CCCOC(=O)c1c(N)sc(-c2ccccc2)c1C
(d) Cc1c(-c2ccccc2)sc(N)c1C#N
Asked: Could you please order the items by pIC50, going from the lowest number to the highest? Labels, requested order.
Given back: d, a, b, c
(d: 4.15, a: 5.07, b: 5.39, c: 5.62)
